Numbers sourced from patent US20230044787A1.

IC50 by entry:
Target: Lp-PLA2 (Homo sapiens, UniProt Q13093)
Construct: aliquoted and thawed 40 μL of pooled human plasma was previously added; from tissue; host or cells: pooled human plasma
Sequence (Q13093 22-441): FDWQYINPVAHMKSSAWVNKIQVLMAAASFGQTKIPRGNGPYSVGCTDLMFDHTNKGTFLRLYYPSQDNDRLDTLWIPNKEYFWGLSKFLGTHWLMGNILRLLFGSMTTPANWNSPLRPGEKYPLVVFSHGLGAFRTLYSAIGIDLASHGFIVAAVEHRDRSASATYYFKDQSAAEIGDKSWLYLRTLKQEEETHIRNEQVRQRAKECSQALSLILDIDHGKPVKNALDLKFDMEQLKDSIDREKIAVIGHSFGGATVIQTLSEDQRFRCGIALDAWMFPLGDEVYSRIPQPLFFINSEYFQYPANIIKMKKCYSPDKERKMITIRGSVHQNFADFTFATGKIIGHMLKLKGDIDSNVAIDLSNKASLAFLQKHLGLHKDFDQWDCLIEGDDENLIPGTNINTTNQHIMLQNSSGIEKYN
Assay: Lipoprotein-associated phospholipase A2 (Lp-PLA2) human plasma assay (Thio-PAF assay)
Format: biochemical
Settings: Lp-PLA2 human plasma assay (Thio-PAF), pooled human plasma, 30-min pre-incubation at room temperature
Use nM as the unit, but write only the number.

- compound: "N#Cc1cc(COc2cc3n(c(=O)n2)CC24CC(CN32)C4)ccc1Oc1ccc(Cl)c(C(F)(F)F)c1"
  measured property: "IC50"
  numeric value: 3.9
- compound: "O=c1nc(OCc2cc(F)c(Oc3cncc(C(F)(F)F)c3)c(F)c2)cc2n1C[C@]13CO[C@H](CN21)C3"
  measured property: "IC50"
  numeric value: 4.9
- compound: "N#Cc1cc(COc2cc3n(c(=O)n2)CC24CCC(CC2)N34)ccc1Oc1ccnc(C(F)(F)F)c1"
  measured property: "IC50"
  numeric value: 3.3

Inquiry: Which IC50 is listed for "O=c1nc(OCc2ccc(Oc3ccc(F)c(F)c3)c(F)c2)cc2n1C[C@]13CO[C@H](CN21)C3" ?
Reply text: 2.7

Inquiry: What about "O=c1nc(OCc2ccc(Oc3ccnc(C(F)(F)F)c3)c(F)c2)cc2n1C[C@@]13C[C@@H](CN21)N(C1COC1)C3" ?
Reply text: 2.2

Inquiry: Now this one: "Cc1cc(Oc2c(F)cc(COc3nc(=O)n4c(c3F)N3C[C@@H]5C[C@]3(CO5)C4)cc2F)ccn1"
Reply text: 10.9

Inquiry: Further, for CC12COCCN1c1cc(OCc3cc(F)c(F)c(F)c3)nc(=O)n1C2 (stereo not shown) ?
Reply text: 6.1

Inquiry: Further, for "O=c1nc(OCc2ccc(Oc3ccnc(C(F)(F)F)c3)c(F)c2)cc2n1C[C@@]13C[C@@H](CN21)N(Cc1ccccc1)C3" ?
Reply text: 6.2

Inquiry: How about "O=c1nc(OCc2cc(F)c(Oc3ccnc(Cl)c3)c(F)c2)cc2n1C[C@@]13CO[C@@H](CN21)C3" ?
Reply text: 7.3

Inquiry: Moving on to the next compound: CC12COCCN1c1cc(OCc3cc(F)c(Oc4ccc(Cl)c(C(F)(F)F)c4)c(F)c3)nc(=O)n1C2 (stereo not shown)
Reply text: 2

Inquiry: Follow-up item: "O=c1nc(OCc2ccc(Oc3ccc(F)c(C(F)(F)F)c3)nc2)cc2n1CC13CCC(CC1)N23"
Reply text: 168

Inquiry: Can you check "CCc1c(OCc2cc(F)c(Oc3ccnc(C(F)(F)F)c3)c(F)c2)nc(=O)n2c1N1C[C@@H]3C[C@]1(CO3)C2" next?
Reply text: 8.6

Inquiry: Now give it for "O=c1nc(OCc2ccc(Oc3ccnc(C(F)(F)F)c3)c(F)c2)cc2n1CC13CC(CN4CCOCC4)(CN21)C3" too.
Reply text: 5.8

Inquiry: Can you check CCC12CCCN1c1cc(OCc3ccc(Oc4cc(C#N)cc(C(F)(F)F)c4)c(F)c3)nc(=O)n1C2 (stereo not shown) next?
Reply text: 12.1

Inquiry: Let us now turn to "N#Cc1cc(Oc2ccc(COc3cc4n(c(=O)n3)C[C@]35CO[C@H](CN43)C5)cc2F)cc(C(F)(F)F)c1"
Reply text: 4.3

Inquiry: Now consider "CC(C)(O)C12CN3c4cc(OCc5ccc(Oc6ccnc(C(F)(F)F)c6)c(F)c5)nc(=O)n4CC3(C1)C2" and answer again.
Reply text: 4.4

Inquiry: What do you get for CCC12CCCN1c1cc(OCc3cc(F)c(Oc4ccnc(C(F)(F)F)c4)c(F)c3)nc(=O)n1C2 (stereo not shown) ?
Reply text: 8.7

Inquiry: Another compound to look at: "O=C1N(Cc2ccccc2)[C@@H]2CN3c4cc(OCc5cc(F)c(Oc6ccnc(C(F)(F)F)c6)c(F)c5)nc(=O)n4C[C@]13C2"
Reply text: 7.9

Inquiry: And "COc1c(OCCc2ccc(Oc3ccnc(C(F)(F)F)c3)c(F)c2)nc(=O)n2c1N1CC3CC1(C3)C2" ?
Reply text: 6.2

Inquiry: Thanks! And "CN1C[C@]23C[C@H]1CN2c1cc(OCc2ccc(Oc4ccnc(C(F)(F)F)c4)c(F)c2)nc(=O)n1C3" ?
Reply text: 2.1

Inquiry: Next: "O=c1nc(OCc2cc(F)c(Oc3ccnc(C(F)(F)F)c3)c(F)c2)cc2n1CC13CC(F)(CN21)C3"
Reply text: 2.1
